Value source: patent US20250340623A1

Molecular target: alpha-synuclein fibrils, P37840
Assay: SPR, captured mAb
Conditions: remark: other sources report otherwise
READOUT NAME: koff (s⁻¹)
Form entry: value (s⁻¹) — number only.

Example entries and their recorded answers appear below.
ACI-7067-1107G5-Ab2 (antibody, V domains shown) VH: QVQLQQPGTELVKPGASVKLSCKASGYTFTKYWMHWVKQRPGQGLEWIGNINPNNGDTNYNEKFKSKATLTVDKSSSTAYMQLSSLTSEDSAVYYCAIAMDYWGQGTSVTVSS VL: DIQMTQSPSSLSAFLGERVSLTCRASQDIGNNLNWFQQEPDGTIKRLIYATSSLDSGVPKRFSGSRSGSEYSLTISSLESEDFVDYYCLQFGSSPLTFGAGTKLELK	0.00218
ACI-7067-1112H8-Ab2 (antibody, V domains shown) VH: EVKLEESGGGLVQPGGSMKLSCAASGFTFTDAWMNWVRQSPEKGLEWIAEIRNKAHNYATYYAESVKGRFDISGDDSKSSVYLQMNNLRVEDTGIYYCTIYSYWGPGTLVTVSA VL: SIVMTQTPKFLLMSPGDRVTMTCTASQSVSNYVAWYQQKPGQSPKLLIYSASNRFTGVPDRFTGSGYGTDFTFTINTVQTEDMAVYFCQQDYTSPYTFGGGTKLEIK	0.00245
ACI-7088-4305H7-Ab1 (antibody, V domains shown) VH: EVQLQQSGAELVRPGASVKLSCTASGFNIKDDYMHWVKQRPEQGLEWIGWIDPENGDTEYASKFQGKATMIADTSSNTAYLQLSSLTSEDTAVYYCKTWGTTQALFPYWGQGTLVTVSS VL: DIVMTQSQKFMSTSVGDRVSITCKASQNVGTAVGWYQQKAGQSPKLLIHSASNRYTGVPDRFTGSGSGTDFTLTINNMQSEDLADYFCQQYRSYPLTFGAGTKLELK	0.000203
ACI-7079-2602G4-Ab4 (antibody, V domains shown) VH: EVQLVESGGGLVQPKGSLKLSCAASGFTFKTYAMHWVRQAPGKGLEWVARIRSKGSDYATYYADSVKDRFTISRDDSQSMLYLQMNNLKTEDTAMYFCVRGGADSWFAYWGQGTLVTVST VL: QIVLTQSPAIMSASPGERITMTCTASSSVSYMHWYQQKSGTSPKRWIYDTSKLASGVPARFSGSGSGASYTLTISSMEAEDAATYYCQQWNRNPPTFGGGTQLAIK	0.000234
ACI-7088-4303A3-Ab1 (antibody, V domains shown) VH: QVQLQQSGAELVRPGASVTLSCKASGYTFTDYEMHWVKQTPVHGLEWIGVIDPETGGAVQNQKFKGKAILTADNSSSTAYMDLRSLTSEDSAVYNCAMGAALRLAYWGQGTLVTVSS VL: DVLMTQTPLSLPVSLGDQASISCRSSQSIVHSNGNSYLEWYLQKPGQSPKLLIYKVSNRFSGVPDRFSGSGSGTDFTLKINRVEAEDLGVYYCFQGSHVPFTFGSGTKLEIK	0.000606
ACI-7079-2501G2-Ab2 (antibody, V domains shown) VH: EVQLVESGGGLVQPKGSLKLSCAASGFNFNTYAMNWVRQAPGKGLEWVARIRTKSNNFATYYAHSVKDRFTISRDDSESMLYLQMNNLKTEDTAMYYCVRQGLAYYAMDYWGQGTSVTVSS VL: DVLMTQTPLSLPVSLGDQVSISCRSSQTIVHSNGNTYLEWYLQKPGQSPKLLIYKVSNRFSGVPDRFSGSGSGTDFTLKISRVEAEDLGVYYCFQGSQGPLTFGAGTKLELK	0.000528
ACI-7067-1108H1-Ab1 (antibody, V domains shown) VH: EVKLVESGGGLVQPGGSMKLSCTASGFTFSDAWMNWVRQSPEKGLEWVAEIRNKAHNHATNYAESVKGRFTISGDDSKSSVYLQMNNLRAEDTGIYYCTIYSFWGQGTLVTVSA VL: SIVMTQTPKFLLVSAGDRVTITCKASQSVTNYVAWYHQKPGQSPKLLIYSASNRYSGVPDRFTGSGYGTDFTFTINTVQTEDLAVYFCQQDYRIPYTFGGGTKLEIK	0.00118
ACI-7088-4303H6-Ab1 (antibody, V domains shown) VH: EVQLQQSGAELVRPGASVKLSCTASGFNIQDDYMHWVKQRPEQGLEWIGWIDPENGDTEYASKFQGKATLTADTSSNTAYLQLSRLTSEDTAVYYCTTAGSGVQLFDYWGQGTTLTVSA VL: DILMTQSQKFMSTSVGDRVSVTCKASQNVGTNVAWYQQKPGQSPKPLISSASSRYSGVPDRFTGSGSGTDFTLTISNVQSEDLADYFCQQYNRYPLTFGAGTKLELK	0.000636
ACI-7067-1101C8-Ab2 (antibody, V domains shown) VH: EVQLVESGGGLVQPKGSLKLSCAASGFSFNIYAMNWVRQAPGKGLEWVARIRSKSNNYATYYADSVKDRFTISRADSESMLYLQMNNLKTEDTAMYYCVRVGLRFYAMDYWGQGTSVTVSS VL: DVLMTQTPLSLPVSLGDQASISCRSSQSIVHSNGNTYLEWYLQKPGQSPKLLIYKVSNRFSGVPDRFSGSGSGTDFTLKISRVEAEDLGVYYCFQGSQGPLTFGAGTKLELK	0.000283

Moving on to the next binder.
koff in this record for ACI-7079-2501B11-Ab3 (antibody, V domains shown) VH: QVQLQQSGPELVKPGASVKISCKASGYAFSSFWMNWMKQRPGKGLEWIGRIYPGDGDAHYNGEFKGRATLTADKSSSTAYMQLSSLTSEDSAVYFCARKGDFYGSNYDYWGQGTTLTVSS VL: QAVVTQESALTTSPGETVTLTCRSSTGAVTTSNYANWVQEKPDHLFTGLIGGTNNRAPGVPARFSGSLIGDKAALTITGAQTEDEAIYFCALWYSNHLVFGGGTRLTVL : 0.000347
